Exercise: for every item that follows, state its recorded AC35.
- Test system: HepG2 viability, CellTiter-Glo ATP luminescence, 72 h
- protocol details: viability loss in human hepatoma cells – cell-based, CellTiter-Glo luminescence, cherry-pick, set 2, cytotoxicity control, dose response (AID 743395)

Example results:
compound: COC(C(=O)C(O)C(C)O)C1Cc2cc3cc(OC4CC(OC5CC(O)C(O)C(C)O5)C(O)C(C)O4)c(C)c(O)c3c(O)c2C(=O)C1OC1CC(OC2CC(OC3CC(O)C(OC)C(C)O3)C(O)C(C)O2)C(O)C(C)O1 (centres undefined)
AC35: 0.148 µM
--
compound: COc1ccccc1C#Cc1ccc2c(c1)O[C@@H](CN(C)Cc1cccnc1)[C@H](C)CN([C@H](C)CO)S2(=O)=O
AC35: 22.4 µM
--
compound: Cc1occc1C(=O)N/N=C/c1c(O)ccc2ccccc12
AC35: 6.44 µM

Next, consider the following compound.
Input line: # input compound: O=C(Nc1ccc(Br)cn1)c1cccc2ccccc12 ; wanted: its AC35
Output line: 5.99 µM
